Molecular target: T1, human CD94 (human, UniProt Q13241 1-179)
T1 construct: whole, on cells; Endogenous CD94 on primary cells (healthy-donor PBMC NK cells, CLPD-NK and T-LGLL patient cells), where it pairs with NKG2A or NKG2C; also called KLRD1; Natural killer cells antigen CD94
T1 sequence (looked up): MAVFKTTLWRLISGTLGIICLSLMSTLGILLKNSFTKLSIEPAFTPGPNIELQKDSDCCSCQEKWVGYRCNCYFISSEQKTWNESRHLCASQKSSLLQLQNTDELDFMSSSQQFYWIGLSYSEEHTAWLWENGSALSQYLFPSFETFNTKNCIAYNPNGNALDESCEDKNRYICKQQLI
Assay: HLA-E tetramer blocking on healthy-donor PBMCs, flow cytometry; competitor HLA-E tetramer
Procedure: Healthy donor PBMCs were seeded in 96-well plates at a density of 100,000 cells per well, incubated with human Fc block (Biolegend) and cell viability dye (Thermo Fisher) for 30 minutes on ice and protected from light. […] The cells then received a final wash in FACS buffer before quantification on the Cytoflex (Beckman Coulter). All data acquisition and fluorescence compensation were performed using CytoFlex (Beckman Coulter, Atlanta, Ga.). […]
parameter.measured: percent HLA-E blocking (%)
Report only the number, with the unit % understood.

Form field percent HLA-E blocking, entry anti-CD94 antibody ATX-122 (antibody, V domains shown, Detected with an anti-human secondary antibody) VH: QVQLVQSGAEVKKPGASLKVSCKASGYTFTSYGVSWVRQAPGQGLEWVGWISPYNGNTNYAHNLQGRVAMTTDTSTSTAYMELRSLRSDDMAVYYCARDRGRFGELFFDYWGQGTLVTVSS VL: DIVMTQSPSSVSASVGDRVTITCRASQGISNYLAWYQQKPGKAPKLLIYAASSLQSGVPSRFSGSGSGTDFTLTISSLQPEDFATYYCLQHNSYPFTFGPGTKVDIK : 0

Note to self: percent HLA-E blocking recorded for anti-CD94 antibody ATX-124 (antibody, human IgG1, V domains shown) VH: QVQLVQSGAEVKKPGASVKVSCKASGYTFTSYGISWVRQAPGQGLEWMGWISAYNGNTNYAQKLQGRVTMTTDTSTSTAYMEVRSLRSDDTAVYYCARDRGRFGELFFDHWGQGTLVTVSS VL: DIVMTQSPSSVSASVGDRVTITCRASQGISNYLAWYQQKPGKAPKLLIYAASSLQSGVPSRFSGSGSGTDFTLTISSLQPEDFATYYCLQHNSYPFTFGPGTKVDIK was 18

Entry under test: anti-CD94 antibody ATX-130 (antibody, human IgG1, V domains shown, also called hATX-130) VH: EVQLLESGGGLVKPGGSLRLSCAASGFTFSSYSMNWVRQAPGKGLEWVSSISTSSNFIYYADSVKGRFTISRDNAKNSLYLQMNSLRAEDTAVYYCARDLGRYYYYMDVWGKGTTVTVSS VL: DIVMTQSPSSLSASVGDRVTITCRASQSISSWLAWYQQKPGKAPKSLIYAASSLQSGVPSKFSGSGSGTDFTLTISSLQPEDVATYYCQKYNSAPFTFGPGTKVDIK . Its percent HLA-E blocking was 0

# percent HLA-E blocking (binder: anti-CD94 antibody ATX-126 (antibody, human IgG1, V domains shown) VH: QVQLQESGGGLVQPGGSLKLSCAASGFTFSSYSMNWVRQAPGKGLEWVSSISTSSNFIYYADSVKGRFTISRDNSKNTLYLQMNSLRAEDTAVYYCVRDMGPFYSFYYMDVWGNGTTVTVSS VL: DIQVTQSPATLSLSPGERATLSCRASQSVSSSYLAWYQQKPGQAPRLLIYGASNRATGIPARFSGSGSGTDFTLTISSLQPEDFATYYCLQHNSYPPTFGGGTKVDIK ) is 0

For record anti-CD94 antibody ATX-123 (antibody, human IgG1, V domains shown) VH: QVQLVQSGAEVKKPGASVKVSCKASGYTFTSYGISWVRQAPGQGLEWMGWISAYNGNTNYAQKFQGRVTMTTDTSTNTAYMELRSLRSDDTAVYYCARDRGRFGELLSDYWGQGTLVTVSS VL: DIVMTQSPSSVSASVGDRVTITCRASQGISNYLAWYQQKPGKAPKLLIYAASSLQSGVPSRFSGSGSGTDFTLTISSLQPEDFATYYCLQHNSYPFTFGPGTKVDIK the listed percent HLA-E blocking is 39

Just so you know, measured percent HLA-E blocking for anti-CD94 antibody ATX-129 (antibody, human IgG1, V domains shown) VH: EVQLVQSGGGLVQPGGSLRLSCAASGFTFSSYWMSWVRQAPGKGLEWVANIKQDGSAKYYVDSVKGRFTISRDNAKNSLYLQMNSLRAEDTAVYYCARGYYFDYWGQGTLVTVSS VL: EIVLTQSPSTLSASVGDRVTITCRVSQGISSYLNWYRQKPGKVPKLLIYAASSLQSGVPSRFSGSGSGTDFTLTISSLQPEDFATYYCQQSYSTPITFGQGTRLEIK came out at 96

Query anti-CD94 antibody ATX-127 (antibody, human IgG1, V domains shown) VH: QVQLQQSGPGLVKPSGTLSLTCAVSGGSISSRYWWTWVRQPPGKGLEWIGEIYHSGTTNYNPSLESRVTISVDKSKNQFSLKVSSVTAADTAVYYCARSPNWGYYYYYMDVWGKGTTVTVSS VL: EIVMTQSPATLSVSPGERATLSCRASQSVSSSYLAWYQQKPGQAPRLLIYGASSRATGIPDRFSGSGSGTDFTLTISRLESEDFAVYYCQQYGRSLTFGGGTKVEIK yields percent HLA-E blocking of 77

Reported percent HLA-E blocking ( anti-CD94 antibody ATX-125 (antibody, human IgG1, V domains shown) VH: QVQLQQSGPGLVKPSETLSLTCTVSGGSISSIIYYWGWIRQPPGKGLEWIGSIYYSGSTYYNPSLKSRVTISVDTSKNQFSLNLSSVTAADTAVYYCARLPLTGEFAFDIWGQGTMVTVSS VL: EIVLTQSPATLSLSPGERATLSCRASQSVSTYLAWFQQKPGQAPRLLIYGASSRATGIPDRFSGSGSGTDFTLTISRLEPEDFAVYYCQQYGSSPITFGQGTRLEIK ) = 11

Values were extracted from patent US20220127365A1.
